system: A498; assay: NCI tumour cell line growth inhibition, 48 h
Activity calls are given as the source filed them. Rule as the data show it: active = GI50 up to about 1.1 µM and inactive = higher.
experimental endpoint: GI50

Please review the entries below; each comes with its answer.
| compound | assay target | reading |
| --- | --- | --- |
| OCC1C(O)C(O)[C@@H]2SCCN12 (some centres undefined) | A498 | > 100 µM (inactive) |
| [N-]=[N+]=NC1OC(=O)C(Cl)=C1N=P(c1ccccc1)(c1ccccc1)c1ccccc1 (centres undefined) | A498 | > 10 µM (inactive) |
| CCOc1ccc(N/C(Cl)=C(Cl)\C(=C(\Nc2ccc(OCC)cc2)n2nnc3ccccc32)[N+](=O)[O-])cc1 | A498 | 20.4 µM (inactive) |

For CC(C)(C)c1cc(-c2c3nc(c(-c4cc(C(C)(C)C)cc(C(C)(C)C)c4)c4ccc([nH]4)c(-c4cc(C(C)(C)C)cc(C(C)(C)C)c4)c4nc(c(-c5cc(C(C)(C)C)cc(C(C)(C)C)c5)c5ccc2[nH]5)C=C4)C=C3)cc(C(C)(C)C)c1 , what is its reported GI50?
> 100 µM (inactive)

---

system: SF-539; experiment: NCI tumour cell line growth inhibition, 48 h
Calls of active or inactive are those of the source. Cut-off read from the data, not from the text of the source: active = GI50 up to about 1.1 µM and inactive = higher.
experimental endpoint: GI50

| compound | GI50 |
| --- | --- |
| CC1(C)CCC[C@](C)([C@H]2CC[C@]3(C)[C@@H]2[C@H](O)C[C@@H]2[C@@]4(C)CC[C@H](O)C(C)(C)[C@@H]4[C@H](O)C[C@]23C)O1 | 11.7 µM (inactive) |
| CCCCCCc1cc2cc(C(=O)Nc3cccc(F)c3)c(=N)oc2cc1O | 3.26 µM (inactive) |
| ON=C1CCC(c2ccccc2)CC1 (stereo not given) | > 100 µM (inactive) |
| Oc1cc(-c2ccc3ccccc3c2)nc2ncc(Cl)cc12 | 5.62 µM (inactive) |
| O=c1c2cc(O)c(O)cc2oc2cc(O)c(C3OC(CO)C(O)C(O)C3O)c(O)c12 (stereo not given) | > 100 µM (inactive) |

Provide GI50 values for the following items, in order.
1. C(=C\c1cccs1)/c1cccc(/C=C/c2cccs2)n1
2. CN(C)Cc1cc(/N=N/c2cccc(Cl)c2)ccc1O

["> 100 µM (inactive)", "16 µM (inactive)"]

---

test system: SK-MEL-28; assay: NCI tumour cell line growth inhibition, 48 h
Active and inactive are the calls of the source. No stated cut-off is given here; in the data, active = GI50 up to about 1.1 µM and inactive = higher. Peptide text beside a SMILES is read from it. * marks the point of attachment. Boc = CC(C)(C)OC(=O)*; OtBu = CC(C)(C)O*
For each of the compounds below, state its GI50.

Please review the entries below; each comes with its answer.
| compound | reading |
| --- | --- |
| CN(C)c1n/c(=N/c2ncn[nH]2)ss1 | > 100 µM (inactive) |
| CCOC(=O)/C(C(=O)Nc1cccc(Cl)c1)=C(/N)N1CCOCC1 | > 100 µM (inactive) |
| CC(C)(C)OC(=O)CC(NC(=O)OC(C)(C)C)C(=O)NC(Cc1ccccc1)C(N)=O (stereo not given) (Boc-Asp(OtBu)-Phe-NH2; configuration not given here) | > 100 µM (inactive) |
| Cc1cnoc1/N=C1\C=C(Nc2oncc2C)C(=O)c2ccccc21 | > 100 µM (inactive) |
| CC(=O)CC(=O)CCCC(=O)Nc1ccc(Cl)cc1Cl | > 100 µM (inactive) |

Provide GI50 values for the following items, in order.
1. c1ccc(C2(c3cc4ccccc4[nH]3)OCCO2)nc1
2. O=C(O)/C(=C/c1ccccc1)c1ccccc1

1: > 100 µM (inactive); 2: > 100 µM (inactive)

Provide GI50 values for the following items, in order.
1. COC1(OC)CCCCCCCCC(OC)(OC)CCCCCCCC1
2. CC(=O)Nc1ccc(NC(=O)c2c(Cl)c(Cl)c(Cl)c(Cl)c2-c2nc3ccccc3[nH]2)cc1
3. CCN(C(=O)N[C@@H](Cc1ccccc1)C(=O)N[C@@H](CC(C)C)C(=O)NC)c1ccccc1

1: > 100 µM (inactive); 2: 40.2 µM (inactive); 3: > 100 µM (inactive)

---

system: HOP-62; assay: NCI tumour cell line growth inhibition, 48 h
Activity calls are given as the source filed them. Rule as the data show it: active = GI50 up to about 1.1 µM and inactive = higher.
experimental endpoint: GI50

Please review the entries below; each comes with its answer.
| compound | GI50 |
| --- | --- |
| Cc1cc(C)c2c(=O)n(CN3CCC(O)(c4ccccc4)CC3)sc2n1 | 34.7 µM (inactive) |
| c1ccc(CCN2CCc3[nH]c4ccccc4c3C2)cc1 | 19.5 µM (inactive) |
| O=C(O)C1CCCCC1C(=O)Nc1nc2ccccc2[nH]1 (stereo unspecified) | > 100 µM (inactive) |

Provide GI50 values for the following items, in order.
1. CC1=C2C(O)C(C(C)C(=O)N(C)C)CCC2(C)C=CC1=O (stereo unspecified)
2. CCN(CC)C1CC(n2cc(C)c(=O)[nH]c2=O)OC1CO (stereo unspecified)
3. CCCCCCCCCCCCCCCC(=O)OCCOCCOCCOCc1ccccc1

> 100 µM (inactive)
> 100 µM (inactive)
> 100 µM (inactive)

---

For each of the compounds below, state its GI50.
system: A549; experiment: NCI tumour cell line growth inhibition, 48 h
Active and inactive are the calls of the source. Rule as the data show it: active = GI50 up to about 1.1 µM and inactive = higher.

Please review the entries below; each comes with its answer.
| compound | experimental endpoint | reading |
| --- | --- | --- |
| CC1(CC(=O)OC(C#C[Si](C)(C)C)Cc2ccccc2)OCCO1 (centres undefined) | GI50 | > 100 µM (inactive) |
| COC1C(CO)OC(n2c3c(Cl)cccc3c3c4c(c5c6cccc(Cl)c6[nH]c5c32)C(=O)NC4=O)C(O)C1O (centres undefined) | GI50 | 0.298 µM (active) |

Provide GI50 values for the following items, in order.
1. CN(/N=C/c1cccc2cccnc12)c1c([N+](=O)[O-])cc([N+](=O)[O-])cc1[N+](=O)[O-]
2. Nc1nncs1
3. CCOP1(=O)C=C(C)C(Cl)=C(C)C1 (centres undefined)
4. CN(C)Cc1cc(/N=N/c2cccc(Cl)c2)ccc1O
5. COc1ccc2c3c1O[C@H]1C(OC)C=CC4C(C2)N(Cc2cccs2)CCC341 (some centres undefined)
6. O=C(CCN1CCOCC1)/C(=C/c1ccccc1)c1ccccc1

1. 46.8 µM (inactive)
2. 942 µM (inactive)
3. 21.1 µM (inactive)
4. 15.5 µM (inactive)
5. 53.8 µM (inactive)
6. 15.6 µM (inactive)

---

tested on: OVCAR-3; assay: NCI tumour cell line growth inhibition, 48 h
Calls of active or inactive are those of the source. No stated cut-off is given here; in the data, active = GI50 up to about 1.1 µM and inactive = higher.
For each of the compounds below, state its GI50.

Please review the entries below; each comes with its answer.
| compound | GI50 |
| --- | --- |
| CC(=O)C1CC=C(C)CC1 (configuration not stated) | > 100 µM (inactive) |
| O=C1c2cccc3c(Cl)ccc(c23)C(=O)N1CCCN1CCN(CCCN2C(=O)c3cccc4c(Cl)ccc(c34)C2=O)CC1 | > 100 µM (inactive) |
| Cc1cc(NS(=O)(=O)c2ccc(NC(=O)c3cccc4c(NNc5ccc(S(=O)(=O)N=C(N)N)cc5)c5ccccc5nc34)cc2)no1 | 41.2 µM (inactive) |
| C/C(CCn1[nH]c(=O)ccc1=O)=N\Nc1ccc([N+](=O)[O-])cc1[N+](=O)[O-] | > 100 µM (inactive) |
| C/C(=N/NC(=S)NCCc1ccccn1)c1cnccn1 | 32.1 µM (inactive) |
| COc1cc(OC)c(/C=C\c2cc(/C=C/c3c(OC)cc(OC)cc3OC)c3ccccc3[n+]2C)c(OC)c1 | 2.33 µM (inactive) |
| CCc1ccc(CCC(=O)O)nc1 | > 100 µM (inactive) |
| COc1ccc2cc1Oc1ccc(cc1)CC1c3cc(c(OC)cc3CCN1C)Oc1c3c(cc4c1C(C2)N(C)CC4)OCO3 (configuration not stated) | 15.7 µM (inactive) |

Provide GI50 values for the following items, in order.
1. Cc1coc2c1CC1(C)C(CCC(O)C1C)C2 (configuration not stated)
2. Cc1cccnc1N/C=C1\C(=O)NC(=O)N(C)C1=O
3. C=C1CC23CCC4C(C)(C(=O)O)CCCC4(C)C2CCC1C3 (configuration not stated)
4. CCOc1ncn(-c2ccc(NC(=S)Nc3ncccn3)cc2)n1

1: > 100 µM (inactive); 2: > 100 µM (inactive); 3: 30.4 µM (inactive); 4: 37.7 µM (inactive)

---

For each of the molecules below, state its GI50.
system: MDA-N; experiment: NCI tumour cell line growth inhibition, 48 h
The source made the active and inactive calls. No stated cut-off is given here; in the data, active = GI50 up to about 1.1 µM and inactive = higher.

Provide GI50 values for the following items, in order.
1. C/C(=N\NC(=O)Nc1ccccc1Cl)c1ccc(O)cc1
2. O=P1(Oc2ccccc2)N(CCCl)CCN1c1ccccc1 (stereo not drawn)
3. COC(=O)[C@]1(c2cc3ccccc3[nH]2)CC2CN(C(=O)OCc3ccccc3)C1CC2=O (stereo partly drawn)
4. O=C(NN1C(=O)c2ccccc2C1=O)c1ccccc1Nc1ccccc1C(=O)NN1C(=O)c2ccccc2C1=O
5. O=C(Nc1ccccc1C(=O)NCCCO)/C(=C/c1ccccc1O)NC(=O)c1ccccc1
6. CC(C)(C)[Si](C)(C)Oc1cc(CO)cc2c1cc(=N)o[n+]2[O-]
7. CC(=O)OC1COC(N2c3ccccc3[C@@H]3CCc4c([nH]c5ccccc45)[C@@H]32)C(OC(C)=O)C1OC(C)=O.CC(=O)OC1COC(N2c3ccccc3[C@H]3CCc4c([nH]c5ccccc45)[C@H]32)C(OC(C)=O)C1OC(C)=O (stereo partly drawn)
8. CC(=O)c1c(-c2ccco2)c(C#N)c(=S)n(C2OC(CO)C(O)C(O)C2O)c1-c1ccccc1 (stereo not drawn)

["> 100 µM (inactive)", "> 100 µM (inactive)", "24.8 µM (inactive)", "> 100 µM (inactive)", "> 43.5 µM (inactive)", "> 10 µM (inactive)", "65.3 µM (inactive)", "> 10 µM (inactive)"]

Every entry's value here was drawn from ChEMBL document CHEMBL1201862.
